Data provenance is a melting point compilation (Tetko et al.).

Listing: melting point of selected compounds

Below: 3 compounds and their reported melting point.
[
  {
    "compound": "Cc1sc(N)nc1-c1cccc([N+](=O)[O-])c1",
    "melting point": "175 to 177 °C"
  },
  {
    "compound": "COc1cccc(NC(=O)CNc2ccccc2)c1",
    "melting point": "205 to 207 °C"
  },
  {
    "compound": "NC(CSCCOc1ccccc1)C(=O)O (stereo not drawn)",
    "melting point": "214 to 216 °C"
  }
]

Q: Consider the compound NNC(=O)Cc1csc(N2CCOCC2)n1 and give its measured melting point.
A: 168 to 170 °C

====

Known melting point of a selection of molecules

Example cases with answers are listed next.
[
  {
    "molecule": "O=C(CCl)NNC(=O)c1cccc(Cl)c1",
    "experimental_result": "155 to 157 °C"
  },
  {
    "molecule": "O=C(O)c1ccccc1NC(=O)C(F)(F)F",
    "experimental_result": "167 to 169 °C"
  }
]

Q: Quick check: melting point of COc1ccc(OC)c(S(=O)(=O)N2CCNCC2)c1 ?
A: 103 to 105 °C

Q: May I ask what melting point has been recorded for O=C(O)c1nc2[nH]c(-c3ccccc3)cc(=O)n2n1 ?
A: 282 to 284 °C

Q: Need melting point of CCOC(=O)c1oc2ccc(Br)cc2c1CBr , thanks.
A: 132 to 134 °C

====

reported_metric: melting point

Known melting point results, listed for orientation:
[
  {
    "molecule": "CC(Cl)C(=O)NC1CCOc2ccccc21 (configuration not stated)",
    "experimental_result": "129 to 131 °C"
  },
  {
    "molecule": "Nc1cc(-c2cccc(F)c2)no1",
    "experimental_result": "103 to 105 °C"
  },
  {
    "molecule": "NC(=O)c1ccc(NC(=O)OCC(F)(F)F)cc1Cl",
    "experimental_result": "178 to 180 °C"
  },
  {
    "molecule": "CC(N)(C(=O)O)c1cc(F)ccc1F (configuration not stated)",
    "experimental_result": "301 to 303 °C"
  },
  {
    "molecule": "CC(C)c1nnc(N)[nH]1",
    "experimental_result": "108 to 110 °C"
  },
  {
    "molecule": "OCCOc1ccc(O)cc1",
    "experimental_result": "86 to 88 °C"
  }
]

Q: Quick one: melting point of N#CCn1cc(C(=O)O)c2ccccc21 ?
A: 199 to 201 °C

====

This listing pairs molecules with measured melting point.

[
  {
    "smiles": "COc1ccsc1C(=O)O",
    "melting point": "179 to 181 °C"
  },
  {
    "smiles": "Cc1cc(C(=O)CCl)c(C)n1CC(F)(F)F",
    "melting point": "143 to 145 °C"
  }
]

Q: // query melting point value for entry CC(C)COc1cn(-c2ccccc2)nc1C(=O)O
A: 132 to 134 °C

Q: What does the data say about its melting point? Entry: Cn1cc(C(=O)O)c(-c2cccnc2)n1
A: 201 to 203 °C

Q: Consider the molecule Cc1ncsc1C(=O)NN and give its measured melting point.
A: 168 to 170 °C

Q: Value lookup for melting point; key = N#Cc1cccnc1C1CC1
A: 60 to 62 °C

Q: I would be grateful if you could share the reported melting point for CCOc1ccc(-c2nnc(S)n2N)cc1 .
A: 208 to 212 °C

Q: Using the record for OCCNc1cccnn1 , report its melting point.
A: 77 to 79 °C
